# testedTarget: α1 GlyR (Homo sapiens, UniProt P23415)
# Construct: GFP (N)
# Sequence (P23415 29-457): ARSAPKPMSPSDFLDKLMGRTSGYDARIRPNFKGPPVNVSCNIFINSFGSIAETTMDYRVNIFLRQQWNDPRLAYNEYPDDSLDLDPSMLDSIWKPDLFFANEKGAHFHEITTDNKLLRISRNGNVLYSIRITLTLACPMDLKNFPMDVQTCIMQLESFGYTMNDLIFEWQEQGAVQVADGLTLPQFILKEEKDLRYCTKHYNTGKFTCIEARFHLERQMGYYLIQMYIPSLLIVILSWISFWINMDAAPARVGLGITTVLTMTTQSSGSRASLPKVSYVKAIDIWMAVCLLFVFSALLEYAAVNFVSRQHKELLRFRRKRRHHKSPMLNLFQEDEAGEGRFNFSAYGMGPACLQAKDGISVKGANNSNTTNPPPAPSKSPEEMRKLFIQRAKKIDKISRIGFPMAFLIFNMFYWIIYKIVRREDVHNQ
# experimentalDetails: Two-electrode voltage-clamp whole-cell current recordings in X. laevis oocytes expressing α1 GlyR
# cond: α1 GlyR expressed in X. laevis oocytes, clamped at −70 mV, mean ± SEM; read-out: aEC50 (electrophysiology)
propertyMeasured: EC50 (µM)
Report only the number, with the unit µM understood.

Value wanted: EC50 (α1 GlyR (Homo sapiens, UniProt P23415)) of entry NCCS(=O)(=O)O
843

* * *

# testedTarget: α1-GFP GlyR (Homo sapiens)
# Construct: total solubilized membranes in SMA nanodiscs
# Sequence (P23415 29-457): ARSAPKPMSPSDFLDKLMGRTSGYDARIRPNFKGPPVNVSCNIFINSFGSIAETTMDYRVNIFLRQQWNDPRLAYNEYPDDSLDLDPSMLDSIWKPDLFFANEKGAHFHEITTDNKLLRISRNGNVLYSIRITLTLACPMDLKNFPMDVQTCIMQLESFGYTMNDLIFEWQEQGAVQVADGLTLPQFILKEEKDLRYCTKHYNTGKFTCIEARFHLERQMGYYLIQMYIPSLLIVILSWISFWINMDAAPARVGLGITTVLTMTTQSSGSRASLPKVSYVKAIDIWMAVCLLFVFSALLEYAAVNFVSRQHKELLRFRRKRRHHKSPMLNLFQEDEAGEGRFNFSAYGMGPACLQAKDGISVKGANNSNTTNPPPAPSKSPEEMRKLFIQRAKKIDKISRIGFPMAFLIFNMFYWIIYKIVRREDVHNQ
# experimentalDetails: MST of α1-GFP GlyR SMA-copolymer nanodiscs (total solubilized membranes) from X. laevis oocytes
# cond: mean ± SEM, read-out: cEC50 (MST)
propertyMeasured: pEC50
Quick note: pEC50 means taking -log10 of the concentration in moles per liter.

Which pEC50 is reported for this compound? NCCS(=O)(=O)O [taurine]
3.32
